Target: Corticotropin-releasing factor receptor 2/Corticotropin-releasing factor-binding protein (Homo sapiens, UniProt P24387+Q13324)
Sequence (Q13324 whole entry): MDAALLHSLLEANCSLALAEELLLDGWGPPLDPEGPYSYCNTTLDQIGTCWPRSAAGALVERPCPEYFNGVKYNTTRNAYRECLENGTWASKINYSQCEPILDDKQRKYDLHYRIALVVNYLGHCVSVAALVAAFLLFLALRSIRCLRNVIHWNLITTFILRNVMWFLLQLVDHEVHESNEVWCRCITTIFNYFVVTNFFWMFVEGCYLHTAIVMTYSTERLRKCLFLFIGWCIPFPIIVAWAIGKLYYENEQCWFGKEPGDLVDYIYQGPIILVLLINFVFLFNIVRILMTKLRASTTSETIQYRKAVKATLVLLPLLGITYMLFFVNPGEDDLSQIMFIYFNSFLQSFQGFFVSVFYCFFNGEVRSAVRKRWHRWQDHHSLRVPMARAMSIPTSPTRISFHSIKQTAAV
Sequence (P24387 whole entry): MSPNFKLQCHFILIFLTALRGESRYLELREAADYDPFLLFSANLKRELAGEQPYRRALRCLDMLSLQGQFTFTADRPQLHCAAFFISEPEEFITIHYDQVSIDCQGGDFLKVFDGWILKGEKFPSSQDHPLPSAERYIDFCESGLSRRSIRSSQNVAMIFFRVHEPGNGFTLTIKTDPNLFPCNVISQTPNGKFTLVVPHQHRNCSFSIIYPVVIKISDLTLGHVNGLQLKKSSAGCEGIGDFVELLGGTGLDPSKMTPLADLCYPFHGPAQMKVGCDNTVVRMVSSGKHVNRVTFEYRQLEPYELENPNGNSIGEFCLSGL
Experiment: activators of CRF receptor 2 with binding protein – uHTS hits, confirmation (AID 602473)
Format: functional
Conditions: read-out: EC50_Mean
Calls of active or inactive are those of the source. Rule as the data show it: actives have a measured EC50 and inactives only a lower limit.
Labels: yes (1) = active, no (0) = inactive

>  <compound>
COCCn1c(SCC(=O)c2ccc3c(c2)OCCO3)nnc1-c1ccco1

>  <assigned label>
no (0)

$$$$
>  <compound>
NC(Cc1ccccc1Sc1ccccc1)=NO

>  <assigned label>
no (0)

$$$$
>  <compound>
Cc1ccc(S(=O)(=O)NC2=NC(=O)/C(=C/c3ccccc3)S2)cc1

>  <assigned label>
no (0)

$$$$
>  <compound>
COc1cccc(CNC(=O)C2CCC(=O)N(CC3CCCCC3)C2)c1OC (stereo unspecified)

>  <assigned label>
no (0)

$$$$
>  <compound>
O=C(NCc1cc(C(F)(F)F)ccc1Cl)c1cccc2c1C(=O)c1ccc(N3CCCCC3)cc1S2(=O)=O

>  <assigned label>
yes (1)

$$$$
>  <compound>
COc1ccc2ccccc2c1CNCCCN1CCOCC1

>  <assigned label>
no (0)

$$$$
>  <compound>
CCN1CCN(C(=O)C2=CC(c3ccc(OC)cc3)=NS(=O)(=O)N2C)CC1

>  <assigned label>
no (0)

$$$$
>  <compound>
Cc1ccc(NC(=O)c2cc(NC(=O)/C=C\C(=O)O)ccc2N2CCCCC2)cc1

>  <assigned label>
no (0)

$$$$
>  <compound>
O=C(C/C=N\OCc1ccc([N+](=O)[O-])cc1)Nc1ccc(Br)cc1

>  <assigned label>
no (0)

$$$$
>  <compound>
COc1ccc(NC(=O)CSc2nnc(N)s2)c([N+](=O)[O-])c1

>  <assigned label>
no (0)

$$$$
>  <compound>
C=CCn1c(-c2ccc(OC)cc2)nc2ccccc21

>  <assigned label>
no (0)

$$$$
